# Tested system: pooled human IgG
Consider the following proteins; for each one, report its Enzyme Activity Endpoint Assay (purified): Fab'2.

Exercise: Entry PRT-227 (protein) MEVVEVWPYGQNPNGKTEILSQTEDSESLQRLRDIEDFQAEKKMQNVVYTKWLDGVDVKDHDFRKIVDGNIAYYATPLLNGRGFYDINKDFNRDSDKCAAAVAANMFHYWLDINRDNVDRFLRQNPEKHGIIELPDGQLKLSDFLNTYESDHGYRDKSKLFDFISNNFNGPVWTDKLLDNYINGYAYNYKYGRTIEDPTKNTSKINFFKEVFNEKILTNNHSIRNQNEFSVLLSEALYTGKAIGLSYGPAGLRHSLGHIISVWGADLDADGNVVAIYVTDSDDKKLTIGDERVGLKRYKISTDDENRLRLTAYEETHNTGGQIRGLYTLDTGKYAWADYFDKTEQTGTDQAEQLEHHHHHH has what Enzyme Activity Endpoint Assay (purified): Fab'2?
Solution: 22 ng/µL

Exercise: Entry PRT-136 (protein) MRNATEAYAKEVPHQITSVWTKGVTPLTPEQFRYNNEDVIHAPYLAHQGWYDITKAFDGKDNLLCGAATAGNMLHWWFDQNKTEIEAYLSKHPEKQKIIFNNQELFDLKAAIDTKDSQTNSQLFNYFRDKAFPNLSARQLGVMPDLVLDMFINGYYLNVFKTQSTDVNRPYQDKDKRGGIFDAVFTRGDQTTLLTARHDLKNKGLNDISTIIKQELTEGRALALSHTYANVSISHVINLWGADFNAEGNLEAIYVTDSDANASIGMKKYFVGVNAHGHVAISAKKIEGENIGAQVLGLFTLSSGKDIWQKLS has what Enzyme Activity Endpoint Assay (purified): Fab'2?
Solution: 635 ng/µL

// provenance: patent US20250027068
